Assay: amyloid nucleation score (Sup35N fusion, yeast selection) (log enrichment); library NNK1; higher = more nucleation; inactive = no reads after selection;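 note: zero at mode of non-aggregating sequences after 7 days selection at 30°C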
Binning of amyloid nucleation score into classes: 0 = under 0.1, 1 = from 0.1 up to 0.7, 2 = 0.7 and over

For orientation, consider the following solved cases.
LSRNVVGAFGSGHWRADRAA | 1
WMYRLYSISLITSDCS | 1
WRSSWWWRCCYYSSSSMSRW | 2
FLGLNQLNFWFGAS | 2
YNFERDYLSVYHFAWLIP | 1
FCPTVETYNVW | 2
GLRWYQFEPTQG | 1
YNGGGSYNWVWMGNSPVKTR | 2
VYASLTL | 0
KGLLTGSCVDSS | 0

stdin: Hey, which category is "HYSRDSLVVWYI" in, do you know?
stdout: 0

stdin: Hey, which category is "ISHLDG" in, do you know?
stdout: 0

stdin: Hey, which category is "TMLMNEWGMLLNKWEWA" in, do you know?
stdout: 0

stdin: Hey, which category is "LKRVQCNSDRAMWCVALVLT" in, do you know?
stdout: 1

###

Test: amyloid nucleation score (Sup35N fusion, yeast selection) (log enrichment); library NNK2; higher = more nucleation; inactive = no reads after selection
Decision: amyloid nucleation score >= 2 yields Met, all other cases yield Not met.

For orientation, consider the following solved cases.
LNAYGGRCSL | Not met
HQAWSCSTVGFDLAVVNFAD | Not met
HPRTPGLVIEDKKNLFLVWR | Met

stdin: Record "VLTSFGLW" ; criterion: amyloid nucleation score no lower than 2. Met?
stdout: Met

stdin: Record "HNVEGRDRVVLMFSIKCCML" ; criterion: amyloid nucleation score no lower than 2. Met?
stdout: Met

stdin: Record "VRTNDKYQEVFPSVYYNLGN" ; criterion: amyloid nucleation score no lower than 2. Met?
stdout: Not met

stdin: Record "SRRDGCGAPSKTSNWA" ; criterion: amyloid nucleation score no lower than 2. Met?
stdout: Not met

stdin: Record "SSMERCEHLQVLEAFLWSVE" ; criterion: amyloid nucleation score no lower than 2. Met?
stdout: Not met

###

Consider the following sequences; for each one, report its amyloid nucleation score.
Assay: amyloid nucleation score (Sup35N fusion, yeast selection) (log enrichment); library NNK1; higher = more nucleation; inactive = no reads after selection
One number for each entry.

NVCPFWGYKDAW | 0.435
LEDNMEFDFKSRKDSNLCNG | 0.611
LDVLWTGSRSAAA | -0.05

Hey, quick one: what's amyloid nucleation score for each of these?
1. TCFMNVSTQFCMSYKAQRSV
2. VLGMWIWQYRYGDDYFLLFV

stdout:
1: 0.11; 2: 2.7

###

Experiment: amyloid nucleation score (Sup35N fusion, yeast selection) (log enrichment); library NNK2; higher = more nucleation; inactive = no reads after selection
Decision: amyloid nucleation score >= 0.3 yields Met, all other cases yield Not met.

YCMFFCGCVTDPECNVPSDM | Met
VSRVEYCSGCMSANYLL | Met
CMKGVNSLDIASVSQFNLNR | Met

stdin: Record "TTKPSAILWGSTSKRPRLPR" ; criterion: amyloid nucleation score no lower than 0.3. Met?
stdout: Met

stdin: Record "LVRDHRNRVGFCQMSQ" ; criterion: amyloid nucleation score no lower than 0.3. Met?
stdout: Not met

stdin: Record "ITPFHT" ; criterion: amyloid nucleation score no lower than 0.3. Met?
stdout: Not met

stdin: Record "NQLVWSLNNDLGMENVGGRV" ; criterion: amyloid nucleation score no lower than 0.3. Met?
stdout: Met

stdin: Record "HMSTVLLAVAFIALNFPSVE" ; criterion: amyloid nucleation score no lower than 0.3. Met?
stdout: Not met
